Quick record: pKi, UniProt:P0DMS8.
Sequence (P0DMS8 whole entry): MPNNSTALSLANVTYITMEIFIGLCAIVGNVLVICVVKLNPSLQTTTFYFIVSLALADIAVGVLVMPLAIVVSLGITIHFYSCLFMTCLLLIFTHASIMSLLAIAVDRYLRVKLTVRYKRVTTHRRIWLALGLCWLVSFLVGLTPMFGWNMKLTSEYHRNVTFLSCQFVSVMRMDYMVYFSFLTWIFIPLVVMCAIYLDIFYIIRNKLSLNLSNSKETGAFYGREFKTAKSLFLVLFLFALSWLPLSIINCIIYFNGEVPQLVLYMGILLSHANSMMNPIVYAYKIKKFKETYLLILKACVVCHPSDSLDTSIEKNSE
Please express pKi as -log10 of the molar concentration.

Answered examples (5):
Q) Returns the measured pKi for the input molecule. Input: "O=C(c1ccco1)N(C(=O)c1ccco1)c1nc(-c2cccs2)nc2cn(-c3ccccc3)nc12"
A) 8.74

Q) Returns the measured pKi for the input molecule. Input: "Nc1nc(-c2ccccc2)nc2cn(Cc3ccccc3)nc12"
A) 7.27

Q) Returns the measured pKi for the input molecule. Input: "O=c1[nH]c(-c2cccs2)nc2cn(-c3ccccc3)nc12"
A) 6.38

Q) Returns the measured pKi for the input molecule. Input: "O=C(Nc1nc(-c2ccccc2)nc2cn(-c3ccccc3)nc12)c1cccs1"
A) 8.23

Q) Returns the measured pKi for the input molecule. Input: "COc1ccc(-n2cc3nc(-c4cccs4)[nH]c(=O)c3n2)cc1"
A) 6.61

More entries:
Q) Returns the measured pKi for the input molecule. Input: "Cc1nc2cn(Cc3ccccc3)nc2c(=O)[nH]1"
A) 6.31

Q) Returns the measured pKi for the input molecule. Input: "Nc1nc(-c2cccs2)nc2cn(-c3ccccc3)nc12"
A) 8.01

Q) Returns the measured pKi for the input molecule. Input: "O=C(Nc1nc(-c2cccs2)nc2cn(-c3ccccc3)nc12)c1ccccc1"
A) 8.67

Q) Returns the measured pKi for the input molecule. Input: "COc1ccc(-c2nc(N)c3nn(-c4ccc(OC)cc4)cc3n2)cc1"
A) 7.77

Q) Returns the measured pKi for the input molecule. Input: "Nc1nc(-c2ccc(O)cc2)nc2cn(-c3ccccc3)nc12"
A) 6.36

Q) Returns the measured pKi for the input molecule. Input: "Cc1nc2cn(-c3ccccc3F)nc2c(=O)[nH]1"
A) 6.65

Q) Returns the measured pKi for the input molecule. Input: "COc1ccc(C(=O)Nc2nc(-c3cccs3)nc3cn(-c4ccccc4)nc23)cc1"
A) 10.57

Q) Returns the measured pKi for the input molecule. Input: "O=C(Cc1ccccc1)Nc1nc(-c2ccccc2)nc2cn(Cc3ccccc3)nc12"
A) 6.69

Q) Returns the measured pKi for the input molecule. Input: "O=c1[nH]c(-c2ccccc2)nc2cn(Cc3ccccc3)nc12"
A) 6.89

Q) Returns the measured pKi for the input molecule. Input: "O=C(Nc1nc(-c2cccs2)nc2cn(-c3ccccc3)nc12)c1cccnc1"
A) 9.39

Q) Returns the measured pKi for the input molecule. Input: "COc1ccc(C(=O)Nc2nc(-c3ccc(OC)cc3)nc3cn(-c4ccccc4)nc23)cc1"
A) 8.88

Q) Returns the measured pKi for the input molecule. Input: "O=C(Nc1nc(-c2ccccc2)nc2cn(Cc3ccccc3)nc12)c1ccccc1"
A) 6.65

Q) Returns the measured pKi for the input molecule. Input: "O=C(Nc1nc(-c2cccs2)nc2cn(-c3ccccc3)nc12)c1cccs1"
A) 8.61

Q) Returns the measured pKi for the input molecule. Input: "COc1ccc(-c2nc(N)c3nn(-c4ccccc4)cc3n2)cc1"
A) 7.48

Q) Returns the measured pKi for the input molecule. Input: "COc1ccc(-c2nc(NC(=O)c3ccncc3)c3nn(-c4ccccc4)cc3n2)cc1"
A) 8.01
